target: human adenosine A2A receptor (Homo sapiens, UniProt P29274); construct: expressed in transfected cells; host or cells: CHO cells, Semliki Forest virus expression system; membrane preparation; assay: [3H]-SCH-58261 binding assay, human adenosine A2A receptor; conditions: human A2A receptor recombinantly expressed in CHO cell membranes; [3H]-SCH-58261 1 nM; Ki from IC50 by Cheng-Prussoff equation; read-out: Ha2 (pKi) (converted)
Sequence (P29274 whole entry): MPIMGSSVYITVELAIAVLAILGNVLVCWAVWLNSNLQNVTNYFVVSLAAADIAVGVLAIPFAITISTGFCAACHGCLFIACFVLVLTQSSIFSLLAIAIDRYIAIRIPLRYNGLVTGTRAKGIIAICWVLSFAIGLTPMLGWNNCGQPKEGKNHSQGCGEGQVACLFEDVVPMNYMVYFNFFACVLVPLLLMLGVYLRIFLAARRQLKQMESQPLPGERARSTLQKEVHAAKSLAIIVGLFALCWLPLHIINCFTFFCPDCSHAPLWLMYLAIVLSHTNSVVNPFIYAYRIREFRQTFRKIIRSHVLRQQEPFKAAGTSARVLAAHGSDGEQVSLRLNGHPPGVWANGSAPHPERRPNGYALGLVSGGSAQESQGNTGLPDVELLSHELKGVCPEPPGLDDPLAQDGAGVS

{"columns": ["compound", "reading.unit", "Ki"],
 "data": [
  ["COc1ccc(C2CCOCC2)c2sc(NC(=O)N(C)C3CC4CCC3O4)nc12 (racemic) [Example 26]", "nM", 1],
  ["COc1ccc(C2CCOCC2)c2sc(NC(=O)N(C)C3CCN(C)CC3)nc12", "nM", 2.51],
  ["COc1ccc(C2CCOCC2)c2sc(NC(=O)CC3CCOCC3)nc12", "nM", 1.58],
  ["COc1ccc(C2COCCOC2)c2sc(NC(=O)c3ccc(C)s3)nc12", "nM", 1],
  ["CCC(=O)N(C)Cc1ccc(C(=O)Nc2nc3c(OC)ccc(C4COCCOC4)c3s2)cc1", "nM", 2.51],
  ["COc1ccc(C2CCOCC2)c2sc(NC(=O)N3C[C@@H]4C[C@H]3CO4)nc12", "nM", 1.26],
  ["COc1ccc(C2CCOCC2)c2sc(NC(=O)c3ccnc(CN4CCOCC4)c3)nc12", "nM", 2],
  ["COc1ccc(C2COCCOC2)c2sc(NC(=O)c3ccc(F)cc3)nc12", "nM", 1.26],
  ["COCCNCc1cc(C(=O)Nc2nc3c(OC)ccc(C4CCOCC4)c3s2)ccn1", "nM", 1.58]
]}

* * *

{"columns": ["compound", "melting point"],
 "data": [
  ["COCCNCc1cc(C(=O)Nc2nc3c(OC)ccc(C4CCOCC4)c3s2)ccn1", "93 to 95 °C"],
  ["COc1ccc(C2CCOCC2)c2sc(NC(=O)N(C)[C@H]3CC[C@@H](O)CC3)nc12", "191 to 193 °C"],
  ["COc1ccc(C2CCOCC2)c2sc(NC(=O)N(C)[C@H]3CC[C@@](C)(O)CC3)nc12", "211 to 213 °C"],
  ["COc1ccc(C2CCOCC2)c2sc(NC(=O)N(C)C3CC4CCC3O4)nc12 (racemic) [Example 26]", "197 to 200 °C"],
  ["COc1ccc(C2CCOCC2)c2sc(NC(=O)N(C)C3CC4CCC3O4)nc12 (single isomer, unassigned) [Example 56]", "155 to 190 °C"],
  ["COc1ccc(C2CCOCC2)c2sc(NC(=O)N3C[C@@H]4C[C@H]3CO4)nc12", "193 to 197 °C"],
  ["COc1ccc(C2CCOCC2)c2sc(NC(=O)c3ccnc(CN4CCOCC4)c3)nc12", "199 to 201 °C"],
  ["COCCN(C)Cc1cc(C(=O)Nc2nc3c(OC)ccc(C4COCCOC4)c3s2)ccn1", "100 to 107 °C"],
  ["COc1ccc(C2CCOCC2)c2sc(NC(=O)N(C)C3CCN(N(C)C)CC3)nc12", "167 to 170 °C"],
  ["COc1ccc(C2CCOCC2)c2sc(NC(=O)N(C)C3CC4CCC3O4)nc12 (single isomer, unassigned) [Example 55]", "185 to 188 °C"],
  ["COc1ccc(C2CCOCC2)c2sc(NC(=O)N3CC4CCC3CC4)nc12", "237 to 239 °C"],
  ["COc1ccc(C2CCOCC2)c2sc(NC(=O)C[C@H]3CC[C@H](O)CC3)nc12", "120 to 145 °C"],
  ["COc1ccc(C2COCCOC2)c2sc(NC(=O)c3ccnc(CN4CCCC4)c3)nc12", "108 to 111 °C"],
  ["COc1ccc(C2CCOCC2)c2sc(NC(=O)CC3CCOCC3)nc12", "218 to 220 °C"],
  ["COc1ccc(C2CCOCC2)c2sc(NC(=O)[C@H]3CCCO3)nc12", "158 to 161 °C"],
  ["COc1ccc(C2CCOCC2)c2sc(NC(=O)N(C)C3CCN(C)CC3)nc12", "152 to 155 °C"],
  ["COc1ccc(C2CCOCC2)c2sc(NC(=O)N(C)[C@H]3CC[C@H](O)CC3)nc12", "160 °C"]
]}
